Every entry's value here was drawn from the supplement of paper PMC10567573.

B1: SFRS1 (parent)
chain: YSPRRSRGSPRYSPRHSRSRSRT

variants of: B1; assay: protein stability index of a GFP-peptide fusion (GPS, HEK-293T) (PSI 1-6); higher = more stable; settings: c terminus: native;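 further: lentivirally expressed fusions sorted by FACS into six bins by GFP to DsRed ratio, PSI derived from sequencing read proportions per bin multiplied by bin number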
Reported endpoint: protein stability index
# answer = number (no unit)

Task: Give the measured protein stability index of YSPRRSRGSPRYSPRCSRSRSRT [H16C] .
Result: 3.96

Task: Give the measured protein stability index of YSPRRRRGSPRYSPRHSRSRSRT [S6R] .
Result: 4.01

Task: Give the measured protein stability index of YSPRRSRGSPRYSPRHSRSRSYT [R22Y] .
Result: 3.9
